- assay_target: CDK8 (Homo sapiens, UniProt P49336)
- Sequence (P49336 whole entry): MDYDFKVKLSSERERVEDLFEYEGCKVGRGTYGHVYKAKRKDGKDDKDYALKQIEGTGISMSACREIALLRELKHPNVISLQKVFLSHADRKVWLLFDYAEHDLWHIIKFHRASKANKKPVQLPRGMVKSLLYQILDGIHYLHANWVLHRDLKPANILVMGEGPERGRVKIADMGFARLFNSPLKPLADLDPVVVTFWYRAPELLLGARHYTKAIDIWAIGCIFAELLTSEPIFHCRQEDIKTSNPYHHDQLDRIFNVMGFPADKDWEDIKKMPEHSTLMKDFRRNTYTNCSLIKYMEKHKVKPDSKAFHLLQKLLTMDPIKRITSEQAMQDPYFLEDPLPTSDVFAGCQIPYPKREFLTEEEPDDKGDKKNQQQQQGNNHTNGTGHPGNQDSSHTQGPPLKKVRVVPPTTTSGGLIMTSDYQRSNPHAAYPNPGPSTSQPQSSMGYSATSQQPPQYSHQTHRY
- Sequence (P24863 whole entry partner): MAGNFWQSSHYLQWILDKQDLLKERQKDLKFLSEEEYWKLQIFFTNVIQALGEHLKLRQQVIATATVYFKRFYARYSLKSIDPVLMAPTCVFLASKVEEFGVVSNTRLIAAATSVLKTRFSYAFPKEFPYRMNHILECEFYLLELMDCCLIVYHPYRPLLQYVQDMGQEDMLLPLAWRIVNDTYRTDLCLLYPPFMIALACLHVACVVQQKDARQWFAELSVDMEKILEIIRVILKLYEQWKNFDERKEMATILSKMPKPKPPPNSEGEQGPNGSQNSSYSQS
Label y when IC50 < 1000 nM; otherwise n.

INSERT INTO results (entry_smiles, qualitative_label) VALUES
  ('O=C(c1ccncc1)c1cnc(Nc2ccc(F)cc2)nc1', 'n'),
  ('Cc1nc(Nc2ccc(CC(C)C)cc2)ncc1Nc1ccncc1C(F)(F)F', 'y'),
  ('Cc1cnccc1Nc1cnc(Nc2ccc(C3CCCCC3)cc2)nc1', 'y'),
  ('CNC(=O)c1cc(Nc2cnc(Nc3ccc(CC(C)C)cc3)nc2)ccn1', 'y'),
  ('CC(C)Cc1ccc(Nc2ccc(C(=O)c3cccnc3)cn2)cc1', 'n'),
  ('Cc1cc(Nc2cnc(Nc3ccc(CC(C)C)cc3)nc2)cc(C)n1', 'n'),
  ('CC(C)Cc1ccc(Nc2ncc(C(=O)c3ccncc3)cn2)cc1', 'y'),
  ('CC(C)Cc1ccc(Nc2ncc(Nc3ccncc3OC3CCCC3)cn2)cc1', 'y'),
  ('c1cc(Nc2cnc(Nc3ccc(C4COC4)cc3)nc2)c(OC2CCCC2)cn1', 'y'),
  ('CC(C)Cc1ccc(Nc2ncc(-c3ccc(=O)[nH]c3)cn2)cc1', 'n'),
  ('Cc1cnccc1Nc1cnc(Nc2ccc(CC(C)C)cc2F)nc1', 'y'),
  ('CC(C)Cc1ccc(Nc2ncc(C(F)(F)c3ccncc3)cn2)cc1', 'y'),
  ('FC(F)(F)c1cnccc1Nc1cnc(Nc2ccc(C3CCOCC3)cc2)nc1', 'y'),
  ('CC(C)Cc1ccc(Nc2ccc(Nc3ccncc3)cn2)cc1', 'y'),
  ('CC(C)Cc1ccc(Nc2ncc(-c3ccc(C#N)cc3)cn2)cc1', 'n'),
  ('CC(C)Cc1ccc(Nc2ncc(Nc3ccnc4ccccc34)cn2)cc1', 'y'),
  ('O=C(c1cnc(Nc2ccc(C3CCOCC3)cc2)nc1)c1ccncc1OC1CCCC1', 'y'),
  ('CC(C)Cc1ccc(Nc2ncc(Nc3ccncc3C#N)cn2)cc1', 'y'),
  ('CCCc1ccc(Nc2ncc(Nc3cc(C)nc(C)c3)cn2)cc1', 'n');
